- Assay Remarks: Pharmacokinetic study in 6-OHDA-induced PD rats after oral administration
- Format: in vivo
- Particulars: rat, plasma, 50 mg/kg
Reported half-life by item:
Could you give me the number in h? Just the number is fine.

// field: half-life; key: CC(C)CNC(=O)/C=C/C=C/c1ccc2c(c1)OCO2 ; value = 2.42

// field: half-life; key: O=C(/C=C/CCc1ccc2c(c1)OCO2)N1CCCCC1 ; value = 2.8

// field: half-life; key: O=C(/C=C/C=C/c1ccc2c(c1)OCO2)N1CCCCC1 ; value = 3.65

----------
- Assay Remarks: Pharmacokinetic study in sham rats after oral administration of PLA
- Type: in vivo
- Particulars: rat, plasma, 50 mg/kg
Reported AUC(0-t) by item:
I'd appreciate it if you wrote the number followed by its unit.

- Molecule: "O=C(/C=C/CCc1ccc2c(c1)OCO2)N1CCCCC1 [PPRA, piperanine]"
  Measured Value: "225 ng·h/mL"

For the next question, use this molecule.
// field: AUC(0-t); key: CC(C)CNC(=O)/C=C/C=C/c1ccc2c(c1)OCO2 [PPL, piperlonguminine] ; value = 302 ng·h/mL

----------
Reported Tmax by item:
- Assay Remarks: Pharmacokinetic study in 6-OHDA-induced PD rats after oral administration
- Type: in vivo
- Particulars: rat, plasma, 50 mg/kg
Could you give me the number in min? Just the number is fine.

- Molecule: "CC(C)CNC(=O)/C=C/C=C/c1ccc2c(c1)OCO2 [PPL, piperlonguminine]"
  Tmax [min]: 27
- Molecule: "O=C(/C=C/C=C/c1ccc2c(c1)OCO2)N1CCCCC1 [PPR, piperine]"
  Tmax [min]: 240

For the next question, use this molecule.
// field: Tmax; key: O=C(/C=C/CCc1ccc2c(c1)OCO2)N1CCCCC1 [PPRA, piperanine] ; value = 10.8

----------
- Assay Remarks: Pharmacokinetic study in sham rats after oral administration of PLA
- Format: in vivo
- Particulars: rat, plasma, 50 mg/kg
Measurement Label: AUC(0-inf) (ng·h/mL)
Could you give me the number in ng·h/mL? Just the number is fine.

- Input Smiles: "O=C(/C=C/CCc1ccc2c(c1)OCO2)N1CCCCC1"
  AUC(0-inf) [ng·h/mL]: 230

For the next question, use this compound.
// field: AUC(0-inf); key: CC(C)CNC(=O)/C=C/C=C/c1ccc2c(c1)OCO2 ; value = 318

----------
- Assay Remarks: Pharmacokinetic study in 6-OHDA-induced PD rats after oral administration
- Assay type: in vivo
- Particulars: rat, plasma, 25 mg/kg
Measurement Label: Cmax (ng/mL)
Could you give me the number in ng/mL? Just the number is fine.

// field: Cmax; key: O=C(/C=C/C=C/c1ccc2c(c1)OCO2)N1CCCCC1 ; value = 825

----------
Reported Tmax by item:
- Assay Remarks: Pharmacokinetic study in sham rats after oral administration of PLA
- Type: in vivo
- Particulars: rat, plasma, 50 mg/kg
Could you give me the number in min? Just the number is fine.

Known Tmax results, listed for orientation:
- Input Smiles: "O=C(/C=C/CCc1ccc2c(c1)OCO2)N1CCCCC1"
  Measurement Label: "Tmax"
  Measured Value: 10.8
- Input Smiles: "CC(C)CNC(=O)/C=C/C=C/c1ccc2c(c1)OCO2"
  Measurement Label: "Tmax"
  Measured Value: 27

For the next question, use this compound.
// field: Tmax; key: O=C(/C=C/C=C/c1ccc2c(c1)OCO2)N1CCCCC1 ; value = 288

Origin of values: paper PMC9075506
